- assay.notes: Quantitative High-Throughput drug screen in 47 multiple myeloma cell lines against the NCATS MIPE library collection: XG6_PLB cell viability assay (AID 1919865); note: nearly all actives have a fitted effect of over 40% in size
- measurement.context: XG6 myeloma viability, CellTiter-Glo ATP luminescence, 48 h; series mostly up to 45.8 µM
Records with an inconclusive call do not appear. The source made the active and inactive calls. Calls come from the whole dose curve; as a rule, active = well fitted cell-killing curve with a large enough effect; inconclusive = small, poorly fitted or top-dose-only effect, or effect the other way; inactive = no such curve, though single readings can be large or run the other way.
Entry note: the call must match one of active, inactive

Sample answers from the record:
{"compound": "Cn1cc(-c2ccc3nnc(Sc4ccc5ncccc5c4)n3n2)cn1", "class": "active"}
{"compound": "CN1CCc2c(n(Cc3ccc(C(=O)NO)cc3)c3ccccc23)C1", "class": "active"}

Q) I'd appreciate the recorded outcome for "O=C1CCCC(=O)C1C(=O)c1ccc(C(F)(F)F)cc1[N+](=O)[O-]" from this test.
A) inactive

Q) I'd appreciate the recorded outcome for "C[C@H](c1ccc(F)cc1CCCC(=O)O)N(c1cc(F)ccc1F)S(=O)(=O)c1ccc(Cl)cc1" from this test.
A) active

Q) I'd appreciate the recorded outcome for "COc1cc(Nc2nc3ccccc3nc2NS(=O)(=O)c2ccc(NC(=O)c3ccc(C)c(OC)c3)cc2)cc(OC)c1" from this test.
A) active

Q) I'd appreciate the recorded outcome for "C[C@]12CC[C@@H]3c4ccc(O)cc4CC[C@H]3[C@H]1[C@@H](O)[C@@H](O)[C@H]2O" from this test.
A) active

Q) I'd appreciate the recorded outcome for "CC[C@H]1OC(=O)[C@H](C)[C@@H](O[C@H]2C[C@@](C)(OC)[C@@H](O)[C@H](C)O2)[C@H](C)[C@@H](O[C@@H]2O[C@H](C)C[C@H](N(C)C)[C@H]2O)[C@](C)(O)C[C@H](C)C(=NOCOCCOC)[C@H](C)[C@@H](O)[C@]1(C)O" from this test.
A) inactive

Q) I'd appreciate the recorded outcome for Cc1cc(C(C)Nc2ccccc2)c2nc(N3CCOCC3)cc(=O)n2c1 (stereo not drawn) from this test.
A) active

----------
- assay.notes: Quantitative High-Throughput drug screen in 47 multiple myeloma cell lines against the NCATS MIPE library collection: KHM11_PLB cell viability assay (AID 1918962); note: nearly all actives have a fitted effect of over 35% in size
- measurement.context: KHM11 myeloma cell viability, CellTiter-Glo ATP luminescence, 48 h; series mostly up to 45.8 µM
- Excerpt: PI: Beverly A. Mock Ph.D. Laboratory of Cancer Biology and Genetics, Center for Cancer Research, National Cancer Institute, National Institute of Health, Bethesda, Maryland […] 5; Detector; 425V; Luminescence; Viewlux PerkinElmer. […] 1. […] Briefly, the corresponding myeloma cell lines were screened in 1,536-well plates with 500 cells, 5-uL per well for inhibition of cell viability (assessed by measuring ATP levels with CellTiterGlo). […]
Inconclusive results are not listed. Activity calls are given as the source filed them. Calls follow the shape of the dose curve; as a rule, active = well fitted cell-killing curve with a large enough effect; inconclusive = small, poorly fitted or top-dose-only effect, or effect the other way; inactive = no such curve, though single readings can be large or run the other way.
Entry note: the call must match one of active, inactive

Sample answers from the record:
{"compound": "Cc1ccc2c(c1)C(=O)[C@]1(O)CCN(c3ccccc3)C1=N2", "class": "inactive"}
{"compound": "Cc1ccc(NC(=O)c2cccc(N(C)C)c2)cc1NC(=O)c1ccc(O)cc1", "class": "active"}
{"compound": "CN(C)CC[C@H](CSc1ccccc1)Nc1ccc(S(=O)(=O)NC(=O)c2ccc(N3CCN(Cc4ccccc4-c4ccc(Cl)cc4)CC3)cc2)cc1[N+](=O)[O-]", "class": "active"}
{"compound": "CNC1CCC(N(Cc2cccc(-c3ccncc3)c2)C(=O)c2sc3ccccc3c2Cl)CC1 (stereo not drawn)", "class": "active"}
{"compound": "COc1cc2ncn(-c3cc(OCc4ccccc4S(C)(=O)=O)c(C#N)s3)c2cc1OC", "class": "inactive"}
{"compound": "CCC(C)SSc1ncc[nH]1 (stereo not drawn)", "class": "active"}
{"compound": "C[C@@H]1CC=CC=CC=CC=C[C@@H](O[C@@H]2O[C@H](C)[C@@H](O)[C@H](N)[C@H]2O)C[C@@H]2O[C@](O)(C[C@@H](O)C[C@@H]3O[C@@H]3C=CC(=O)O1)C[C@H](O)[C@@H]2C(=O)O", "class": "active"}

Okay, now this compound:
Q) I'd appreciate the recorded outcome for "NS(=O)(=O)c1cc(Cl)c(Cl)c(S(N)(=O)=O)c1" from this test.
A) inactive
